src = patent US20240002497A1

target: T1, huNav1.7α + β1-β2-β3 (human, UniProt Q15858 1-1988; A5A6L6 19-218; O60939 30-215; Q2KI11 23-215); assay: binding FACS, CHO FlpIn cells
T1 construct: Cell line (CHO FlpIn, HEK FlpIn, transient HEK293T) is named under assay; also called huNav1.7-beta1-beta2-beta3; human Nav1.7α with Navβ1, Navβ2 and Navβ3
Outcome measure: EC50 (nM)
Answers are plain numbers, in nM.

Below, 3 binders whose answers are already recorded.
| Binder | EC50 [nM] |
| --- | --- |
| F010301627 (VHH, G50A vs F0103362B08 (Kabat)) VHH: EVQLVESGGGLVQAGGSLRLSCAASVRPFSTSAMGWFRQAPEKEREAVAAILWNGIVTYYADSVKGRFTISRDNAKNEVYLQMNKLKPEDTAVYYCALDRDYGGRSFSAYEYEYWGQGTLVTVSS | 76 |
| F010301585 (VHH, V56P vs F0103362B08 (Kabat)) VHH: EVQLVESGGGLVQAGGSLRLSCAASVRPFSTSAMGWFRQAPEKEREAVAGILWNGIPTYYADSVKGRFTISRDNAKNEVYLQMNKLKPEDTAVYYCALDRDYGGRSFSAYEYEYWGQGTLVTVSS | 110 |
| F010301592 (VHH, R100aS vs F0103362B08 (Kabat)) VHH: EVQLVESGGGLVQAGGSLRLSCAASVRPFSTSAMGWFRQAPEKEREAVAGILWNGIVTYYADSVKGRFTISRDNAKNEVYLQMNKLKPEDTAVYYCALDRDYGGSSFSAYEYEYWGQGTLVTVSS | 200 |

Here is the next item to consider.
The measured EC50 associated with F010302341 (VHH) VHH: EVQLVESGGGVVQPGGSLRLSCAASSRQFIRDVFTGWYRQAPGKQRELVARIYNEGNTNYADSAKGRFTISRDNAKKTVYLQMNSLRPEDTALYYCLFSGTISTGREYRSGDYWGQGTLVTVSS reads 5.3
